Reported MFI values are given for each entry in this list.
Target: T1, cynomolgus BCMA, on transiently transfected 293T cells (cynomolgus (Macaca fascicularis), UniProt Q02223 1-184 (human entry))
T1 construct: also called cyno BCMA
T1 sequence (Q02223 other isoform, or with tags, fused parts or gaps): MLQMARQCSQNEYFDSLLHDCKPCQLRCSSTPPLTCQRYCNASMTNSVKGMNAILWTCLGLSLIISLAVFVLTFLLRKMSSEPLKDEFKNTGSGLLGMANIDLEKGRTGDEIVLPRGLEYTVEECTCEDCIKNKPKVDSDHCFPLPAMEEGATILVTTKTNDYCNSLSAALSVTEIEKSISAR
Experiment: FACS O/N
Just the number, please.

[
  {
    "binder": "29C12 (antibody, V domains shown, also called Ab-8; 29C12.1) VH: EVQLLESGGALVQPGGSLRLSCAASGFTFSSYAMNWVRQAPGKGLEWVSAISVGGDTYYADSVKGRFTISRDNSKNTLYLQMNSLRAEDTAVYYCAKDQVTMVRGVWYYYGLDVWGQGTTVTVSS VL: DIVMIQSPLSLPVTPGEPASISCRSSQSLLHSNGNNYLDWYLQKPGQSPHLLISLGSNRTSGVPDRFSGSGSGTDFTLKISRVEAEDVGVYYCMQALQPPRRFGQGTKLEIKR",
    "quantity": "MFI",
    "observedValue": 110
  }
]

Query: Can you look up the measured MFI of 37B2 (antibody, V domains shown, Tested as purified hybridoma IgG2 or IgG4; also called Ab-16; 37B2.1) VH: EVQLLESGGALVQPGGSLRLSCAASGFTFSNYAMNWVRQAPGKGLEWVSAISVGGDTYYADSVKGRFTISRDNSKNTLYLHVNSLSAEDSAVYYCAKDQVTLVRGVWYYYGLDVWGQGTTVTVSS VL: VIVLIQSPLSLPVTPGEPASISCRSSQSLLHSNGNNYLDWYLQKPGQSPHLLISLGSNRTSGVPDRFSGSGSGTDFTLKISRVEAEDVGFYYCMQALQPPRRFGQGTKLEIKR for me?
Result: 104

Query: // repeat for 32B5 (antibody, V domains shown, 32B5.1 was purified hybridoma IgG2 or IgG4; later converted to human IgG1; also called Ab-10; 32B5.1) VH: EVQLLESGGALVQPGGSLRLSCAASGFTFSSYAMNWVRQAPGKGLEWVSAISVGGDTYYADSVKGRFTISRDNSKNTLYLHVNSLSAEDSAVYYCAKDQVTLVRGVWYYYGLDVWGQGTTVTVSS VL: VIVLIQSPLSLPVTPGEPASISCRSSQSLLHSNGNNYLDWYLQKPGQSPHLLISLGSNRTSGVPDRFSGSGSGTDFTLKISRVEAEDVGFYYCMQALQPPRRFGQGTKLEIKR and report
Result: 108

Query: Same thing, different binder: 35D2 (antibody, V domains shown, also called Ab-15; 35D2.1) VH: EVQLLESGGALVQPGGSLRLSCAASGFTFSSYAMNWVRQAPGKGLEWVSAISVGGGTYYADSVKGRFTISRDNSKNTLYLHVNSLRAEDTAVYYCAKDQVTMVRGVWYYYGLDVWGQGTTVTVSS VL: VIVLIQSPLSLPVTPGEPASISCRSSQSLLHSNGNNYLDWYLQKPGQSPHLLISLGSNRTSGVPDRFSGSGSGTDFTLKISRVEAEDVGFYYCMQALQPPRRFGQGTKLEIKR
Result: 152

Query: // repeat for 33C7 (antibody, V domains shown, Tested as purified hybridoma IgG2 or IgG4; also called Ab-11; 33C7_HC#1) VH: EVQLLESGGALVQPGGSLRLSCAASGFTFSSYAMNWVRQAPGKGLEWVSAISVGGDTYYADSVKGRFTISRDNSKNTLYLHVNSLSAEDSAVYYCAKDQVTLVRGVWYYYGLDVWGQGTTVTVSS VL: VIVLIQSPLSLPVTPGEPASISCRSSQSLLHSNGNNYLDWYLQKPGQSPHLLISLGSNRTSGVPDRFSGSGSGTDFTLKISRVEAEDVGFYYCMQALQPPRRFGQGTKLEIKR and report
Result: 109
